Items are presented alongside their recorded pIC50.
Biological target: T1, CEGPCR4 (C. elegans)
T1 construct: Expressed in CHO cells
T1 chain: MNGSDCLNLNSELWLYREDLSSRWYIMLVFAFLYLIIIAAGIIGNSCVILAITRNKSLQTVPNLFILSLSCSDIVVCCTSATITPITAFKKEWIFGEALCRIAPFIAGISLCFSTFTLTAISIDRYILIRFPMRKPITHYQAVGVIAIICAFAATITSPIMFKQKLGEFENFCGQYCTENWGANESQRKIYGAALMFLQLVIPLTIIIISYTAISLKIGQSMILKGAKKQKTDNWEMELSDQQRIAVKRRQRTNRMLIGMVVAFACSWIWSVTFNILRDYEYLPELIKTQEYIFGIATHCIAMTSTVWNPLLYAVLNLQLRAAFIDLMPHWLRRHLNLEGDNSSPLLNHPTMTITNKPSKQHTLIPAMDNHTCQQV
Experiment: competition binding assay, CEGPCR4/CHO membranes, vs [125I-Y]DVPGVLRF-NH2
pIC50: −log10 of the molar value. Where no end group is shown, it is not given here. [ ]: non-standard residue; d: D form. Tyr(3-I) = N[C@@H](Cc1ccc(O)c(I)c1)C(=O)O

These solved cases illustrate the format of a correct answer.
binder | pIC50
KPNFLRF-NH2 [KPNFLRF-NH2] | 3.05 to 4.22
GGPQGPLRF-NH2 [GGPQGPLRF-NH2] | 3.30 to 4.30
Ac-GVLRF-NH2 [Ac-GVLRF-NH2] | 7.22 to 9.00
GNSFLRF-NH2 (also called GNSFLRFamide) [GNSFLRF-NH2] | 3.05 to 4.22
[Tyr(3-I)]PGVLRF-NH2 (N-terminus assumed; SMILES CC(C)C[C@H](NC(=O)[C@@H](NC(=O)CNC(=O)[C@@H]1CCCN1C(=O)[C@@H](N)Cc1ccc(O)c(I)c1)C(C)C)C(=O)N[C@@H](CCCNC(=N)N)C(=O)N[C@@H](Cc1ccccc1)C(N)=O, Synthetic; also called 3-Ioda-Y-PGVLRF-NH2) [3-Iodo-Y-PGVLRF-NH2] | 7.22 to 9.00

Identify measured pIC50 associated with [Tyr(3-I)]VPGVLRF-NH2 (N-terminus assumed; SMILES CC(C)C[C@H](NC(=O)[C@@H](NC(=O)CNC(=O)[C@@H]1CCCN1C(=O)[C@@H](NC(=O)[C@@H](N)Cc1ccc(O)c(I)c1)C(C)C)C(C)C)C(=O)N[C@@H](CCCNC(=N)N)C(=O)N[C@@H](Cc1ccccc1)C(N)=O, Synthetic) [3-Iodo-Y-VPGVLRF-NH2]
7.22 to 9.00
